Data origin, for the record: ChEMBL document CHEMBL4118256

- measurement-notes: Selectivity index, ratio of IC50 for African green monkey Vero cells to IC50 for Trypanosoma cruzi MHOM/Pe/2011/Arequipa DTU 5 epimastigotes
- Assay type: toxicity
- applied-conditions: read-out: Ratio IC50
parameter: selectivity ratio
Output: the number by itself.

Tell me selectivity ratio reported for O=C(CCN1CCN(c2ccc([N+](=O)[O-])cc2)CC1)c1ccc(F)cc1 1.7

Tell me selectivity ratio reported for O=C(CCN1CCN(c2ccc(F)cc2)CC1)c1ccc(F)c(Cl)c1 7.3

Tell me selectivity ratio reported for COc1ccc(C(=O)CCN2CCN(c3ccc([N+](=O)[O-])cc3)CC2)cc1 18.6

Tell me selectivity ratio reported for O=C(CCN1CCN(c2ccc(C(F)(F)F)cc2)CC1)c1ccc(F)c(Br)c1 1.4

Tell me selectivity ratio reported for Cc1ccc(C(=O)CCN2CCN(c3ccc([N+](=O)[O-])cc3)CC2)cc1 8.3

---

- measurement-notes: Selectivity index, ratio of IC50 for African green monkey Vero cells to IC50 for Trypanosoma cruzi MHOM/Pe/2011/Arequipa DTU 5 epimastigotes
- Format: toxicity
- applied-conditions: read-out: Ratio IC50
parameter: selectivity ratio
Output: the number by itself.

Tell me selectivity ratio reported for O=C(CCN1CCN(c2ccc([N+](=O)[O-])cc2)CC1)c1ccc(F)c(F)c1 1.4

Tell me selectivity ratio reported for COc1ccc(C(=O)CCN2CCN(c3ccc(F)cc3)CC2)cc1OC 1.1

Tell me selectivity ratio reported for O=C(CCN1CCN(c2ccc([N+](=O)[O-])cc2)CC1)c1ccc(F)c(Br)c1 7

Tell me selectivity ratio reported for O=C(CCN1CCN(c2ccc([N+](=O)[O-])cc2)CC1)c1ccc(Br)cc1 2.9

Tell me selectivity ratio reported for O=C(CCN1CCN(c2ccc(C(F)(F)F)cc2)CC1)c1ccc(F)c(Cl)c1 3.4

Tell me selectivity ratio reported for O=C(CCN1CCN(c2ccc(Cl)cc2)CC1)c1ccc(Br)cc1 1.2

Tell me selectivity ratio reported for COc1ccc(N2CCN(CCC(=O)c3ccc(F)cc3)CC2)cc1 1.3

Tell me selectivity ratio reported for O=C(CCN1CCN(c2ccc(C(F)(F)F)cc2)CC1)c1ccc(C(F)(F)F)cc1 2

Tell me selectivity ratio reported for O=C(CCN1CCN(c2ccc(Cl)cc2)CC1)c1ccc(F)c(Cl)c1 2.5

Tell me selectivity ratio reported for COc1ccc(C(=O)CCN2CCN(Cc3ccccc3)CC2)cc1OC 1.6

Tell me selectivity ratio reported for O=C(CCN1CCN(c2ccc(F)cc2)CC1)c1ccc(F)c(Br)c1 9.1

Tell me selectivity ratio reported for O=C(CCN1CCN(c2ccc(Cl)cc2)CC1)c1ccc(F)c(F)c1 5.6

Tell me selectivity ratio reported for O=C(CCN1CCN(c2ccc(C(F)(F)F)cc2)CC1)c1ccccc1 1.2

Tell me selectivity ratio reported for O=C(CCN1CCN(c2ccc(Cl)cc2)CC1)c1ccc(Cl)c(F)c1 4.2

Tell me selectivity ratio reported for O=C(CCN1CCN(c2ccc(F)cc2)CC1)c1ccc(Br)cc1 4.4

Tell me selectivity ratio reported for O=C(CCN1CCN(c2ccc(C(F)(F)F)cc2)CC1)c1ccc(Cl)c(F)c1 2.7

Tell me selectivity ratio reported for O=C(CCN1CCN(c2ccc(C(F)(F)F)cc2)CC1)c1ccc(F)c(F)c1 0.4

Tell me selectivity ratio reported for COc1ccc(C(=O)CCN2CCN(c3ccc(Cl)cc3)CC2)cc1OC 2.1

Tell me selectivity ratio reported for COc1ccccc1N1CCN(CCC(=O)c2ccc(F)cc2)CC1 0.4

Tell me selectivity ratio reported for O=C(CCN1CCN(c2ccc([N+](=O)[O-])cc2)CC1)c1ccc(OC(F)(F)F)cc1 2.3

Tell me selectivity ratio reported for Cc1ccc(C(=O)CCN2CCN(c3ccc(Cl)cc3)CC2)cc1 5.8

Tell me selectivity ratio reported for O=C(CCN1CCN(c2ccc([N+](=O)[O-])cc2)CC1)c1ccc(F)c(Cl)c1 3.4

---

- measurement-notes: Selectivity index, ratio of IC50 for African green monkey Vero cells to IC50 for Trypanosoma cruzi TINF/CH/1956/Tulahuen DTU 6 epimastigotes
- Type: toxicity
- applied-conditions: read-out: Ratio IC50
For each record, write down the corresponding selectivity ratio.
Output: the number by itself.

Tell me selectivity ratio reported for O=C(CCN1CCN(c2ccc(F)cc2)CC1)c1ccc(F)c(F)c1 5.9

Tell me selectivity ratio reported for Cc1ccc(C(=O)CCN2CCN(c3ccc(Cl)cc3)CC2)cc1 6.2

Tell me selectivity ratio reported for O=C(CCN1CCN(c2ccc(F)cc2)CC1)c1ccc(Br)cc1 2

Tell me selectivity ratio reported for O=C(CCN1CCN(c2ccc(C(F)(F)F)cc2)CC1)c1ccc(F)c(F)c1 0.3

Tell me selectivity ratio reported for O=C(CCN1CCN(c2ccc([N+](=O)[O-])cc2)CC1)c1ccc(Br)cc1 1.7

Tell me selectivity ratio reported for O=C(CCN1CCN(c2ccc(F)cc2)CC1)c1ccc(Cl)c(F)c1 2.3

Tell me selectivity ratio reported for Cc1ccc(C(=O)CCN2CCN(c3ccc([N+](=O)[O-])cc3)CC2)cc1 5.1

Tell me selectivity ratio reported for O=C(CCN1CCN(c2ccc(C(F)(F)F)cc2)CC1)c1ccccc1 0.6

Tell me selectivity ratio reported for COc1ccc(C(=O)CCN2CCN(c3ccc(F)cc3)CC2)cc1 30.2

Tell me selectivity ratio reported for O=C(CCN1CCN(c2ccc(Cl)cc2)CC1)c1ccc(F)c(F)c1 1.9

Tell me selectivity ratio reported for COc1ccc(C(=O)CCN2CCN(c3ccc(Cl)cc3)CC2)cc1OC 5.1

Tell me selectivity ratio reported for COc1ccc(N2CCN(CCC(=O)c3ccc(F)cc3)CC2)cc1 0.8

Tell me selectivity ratio reported for O=C(CCN1CCN(c2ccc(F)cc2)CC1)c1ccc(C(F)(F)F)cc1 0.5

Tell me selectivity ratio reported for O=C(CCN1CCN(c2ccc(C(F)(F)F)cc2)CC1)c1ccc(OC(F)(F)F)cc1 0.8

Tell me selectivity ratio reported for O=C(CCN1CCN(c2ccc(C(F)(F)F)cc2)CC1)c1ccc(F)c(Cl)c1 2.6

Tell me selectivity ratio reported for O=C(CCN1CCN(c2ccc(F)cc2)CC1)c1ccc(F)c(Br)c1 8.5

Tell me selectivity ratio reported for O=C(CCN1CCN(c2ccc(Cl)cc2)CC1)c1ccc(OC(F)(F)F)cc1 1.5

Tell me selectivity ratio reported for O=C(CCN1CCN(c2ccc([N+](=O)[O-])cc2)CC1)c1ccc(F)c(Cl)c1 2.8

Tell me selectivity ratio reported for O=C(CCN1CCN(c2ccc([N+](=O)[O-])cc2)CC1)c1ccc(F)c(F)c1 2.3

Tell me selectivity ratio reported for O=C(CCN1CCN(c2ccc(Cl)cc2)CC1)c1ccc(F)c(Br)c1 6.7

Tell me selectivity ratio reported for O=C(CCN1CCN(c2ccc([N+](=O)[O-])cc2)CC1)c1ccc(Cl)c(F)c1 5.7

Tell me selectivity ratio reported for COc1ccc(C(=O)CCN2CCN(c3ccc(Cl)cc3)CC2)cc1 40.9

---

- measurement-notes: Selectivity index, ratio of IC50 for African green monkey Vero cells to IC50 for Trypanosoma cruzi IRHOD/CO/2008/SN3 DTU 1 amastigotes infected in African green monkey Vero cells
- Format: toxicity
- applied-conditions: read-out: Ratio IC50
For each record, write down the corresponding selectivity ratio.

Tell me selectivity ratio reported for O=C(CCN1CCN(c2ccc(F)cc2)CC1)c1ccc(F)c(F)c1 7.5

Tell me selectivity ratio reported for Cc1ccc(C(=O)CCN2CCN(c3ccc([N+](=O)[O-])cc3)CC2)cc1 9.8

Tell me selectivity ratio reported for COc1ccc(C(=O)CCN2CCN(c3ccc(Cl)cc3)CC2)cc1 51.5

Tell me selectivity ratio reported for COc1ccc(C(=O)CCN2CCN(c3ccc([N+](=O)[O-])cc3)CC2)cc1 19.2

Tell me selectivity ratio reported for COc1ccc(C(=O)CCN2CCN(c3ccc(F)cc3)CC2)cc1 17.6

---

- target: Superoxide dismutase (Trypanosoma cruzi (strain CL Brener), UniProt Q4DCQ3)
- Sequence (Q4DCQ3 whole entry): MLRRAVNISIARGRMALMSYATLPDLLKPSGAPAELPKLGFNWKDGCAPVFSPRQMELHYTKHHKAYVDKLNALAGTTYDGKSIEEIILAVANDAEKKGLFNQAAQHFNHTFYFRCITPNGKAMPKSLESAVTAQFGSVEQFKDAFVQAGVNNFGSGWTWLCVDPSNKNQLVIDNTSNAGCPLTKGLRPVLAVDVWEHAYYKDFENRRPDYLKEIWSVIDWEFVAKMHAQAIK
- measurement-notes: Inhibition of Trypanosoma cruzi MHOM/Pe/2011/Arequipa DTU 5 epimastigotes Fe-SOD by UV-Visible spectrophotometric method
For each record, write down the corresponding IC50.
Write the answer as a number in µM, unit excluded.

Tell me IC50 reported for COc1ccc(C(=O)CCN2CCN(c3ccc(F)cc3)CC2)cc1 7.8

Tell me IC50 reported for COc1ccc(C(=O)CCN2CCN(c3ccc(Cl)cc3)CC2)cc1 6.5

Tell me IC50 reported for COc1ccc(C(=O)CCN2CCN(c3ccc([N+](=O)[O-])cc3)CC2)cc1 5
